IC50 reference
# measuredOn: IDH1-R132H homodimer enzyme (Homo sapiens (Human), UniProt O75874, R132H)
# Sequence (O75874 whole entry R132H): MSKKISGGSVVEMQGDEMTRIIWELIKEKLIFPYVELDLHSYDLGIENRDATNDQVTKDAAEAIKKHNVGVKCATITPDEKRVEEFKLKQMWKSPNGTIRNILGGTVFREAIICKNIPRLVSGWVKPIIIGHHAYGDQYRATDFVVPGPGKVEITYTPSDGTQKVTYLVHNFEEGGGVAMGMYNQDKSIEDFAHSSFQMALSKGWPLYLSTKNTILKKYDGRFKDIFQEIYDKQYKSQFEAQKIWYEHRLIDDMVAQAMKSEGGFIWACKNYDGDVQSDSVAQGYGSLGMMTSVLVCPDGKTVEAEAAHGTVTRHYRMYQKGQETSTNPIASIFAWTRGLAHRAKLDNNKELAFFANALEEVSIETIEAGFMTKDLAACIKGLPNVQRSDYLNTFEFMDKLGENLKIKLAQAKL
# assayOverview: In vitro assay IDH1-R132H homodimer, NADPH depletion assay with NADPH/NADP preincubation
# conditionInfo: 5 μM NADPH and 37.5 μM NADP

Use these answered entries as a reference point.
1) FC1(F)CC(Nc2nc(NC3CC(F)(F)C3)nc(-c3nc(C(F)(F)F)cs3)n2)C1 [Compound 128] :: < 50 nM
2) FC1(F)CCC(Nc2nc(NC3Cc4ccc(Cl)cc4C3)nc(-c3cccc(C(F)(F)F)n3)n2)C1 (stereo not shown) [Compound 182] :: 100 to 1000 nM
3) CC(CC#N)Nc1nc(Nc2ccnc(C(C)(F)F)c2)nc(-c2cccc(C(F)(F)F)n2)n1 (stereo not shown) [Compound 250] :: 100 to 1000 nM

Now look at this entry.
Recall and state the measured IC50 for Cc1cc(-c2nc(NC3CC(F)(F)C3)nc(NC3CC(F)(F)C3)n2)no1 [Compound 311] . > 1000 nM
